Target: T1, human CD81 mutant T163A (human, UniProt P60033 1-236, limits assumed)
T1 construct: as m30; not shown: C-terminal V5 and 6xHis tags
T1 sequence: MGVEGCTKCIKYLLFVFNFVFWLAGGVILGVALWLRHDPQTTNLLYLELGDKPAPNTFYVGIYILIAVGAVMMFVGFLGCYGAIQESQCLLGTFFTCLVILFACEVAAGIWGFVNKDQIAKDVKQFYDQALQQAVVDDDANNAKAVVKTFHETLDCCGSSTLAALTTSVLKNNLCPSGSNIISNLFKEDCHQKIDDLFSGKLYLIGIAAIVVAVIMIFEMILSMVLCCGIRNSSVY
Experiment: ELISA
endpoint_label: relative binding affinity

[Q] Using known records, supply relative binding affinity for 002-A07 N113Q (antibody, human IgG4 S228P, lambda, V domains shown, IgG4 S228P; glycosylation site mutant of 002-A07 VL) VH: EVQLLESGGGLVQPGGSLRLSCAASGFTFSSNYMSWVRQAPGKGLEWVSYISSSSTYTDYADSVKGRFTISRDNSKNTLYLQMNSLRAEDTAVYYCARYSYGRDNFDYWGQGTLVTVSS VL: QSVLTQPPSASGTPGQRVTISCTGSTSNIGAGYDTHWYQQLPGTAPKLLIYGNSNRPSGVPDRFSGSKSGTSASLAISGLRSEDEADYYCQSYDTQLSVWVFGGGTKLTVLG
[A] < 20%

[Q] Using known records, supply relative binding affinity for 002-A07 S115A (antibody, human IgG4 S228P, lambda, V domains shown, IgG4 S228P; glycosylation site mutant of 002-A07 VL) VH: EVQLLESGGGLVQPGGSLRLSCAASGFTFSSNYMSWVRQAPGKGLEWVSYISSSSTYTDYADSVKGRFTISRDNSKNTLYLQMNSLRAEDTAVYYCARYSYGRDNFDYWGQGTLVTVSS VL: QSVLTQPPSASGTPGQRVTISCTGSTSNIGAGYDTHWYQQLPGTAPKLLIYGNSNRPSGVPDRFSGSKSGTSASLAISGLRSEDEADYYCQSYDTNLAVWVFGGGTKLTVLG
[A] < 20%

[Q] Using known records, supply relative binding affinity for 002-A07 S115G (antibody, human IgG4 S228P, lambda, V domains shown, IgG4 S228P; glycosylation site mutant of 002-A07 VL) VH: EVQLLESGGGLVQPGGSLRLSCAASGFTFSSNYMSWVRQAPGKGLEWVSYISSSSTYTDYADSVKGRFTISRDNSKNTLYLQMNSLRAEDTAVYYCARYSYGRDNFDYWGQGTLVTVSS VL: QSVLTQPPSASGTPGQRVTISCTGSTSNIGAGYDTHWYQQLPGTAPKLLIYGNSNRPSGVPDRFSGSKSGTSASLAISGLRSEDEADYYCQSYDTNLGVWVFGGGTKLTVLG
[A] < 20%

[Q] Using known records, supply relative binding affinity for 002-A07 N113S (antibody, human IgG4 S228P, lambda, V domains shown, IgG4 S228P; glycosylation site mutant of 002-A07 VL) VH: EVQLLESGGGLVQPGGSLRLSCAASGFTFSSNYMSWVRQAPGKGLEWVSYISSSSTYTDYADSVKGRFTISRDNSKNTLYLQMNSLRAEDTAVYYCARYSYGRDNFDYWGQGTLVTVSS VL: QSVLTQPPSASGTPGQRVTISCTGSTSNIGAGYDTHWYQQLPGTAPKLLIYGNSNRPSGVPDRFSGSKSGTSASLAISGLRSEDEADYYCQSYDTSLSVWVFGGGTKLTVLG
[A] < 20%
